Details: 313.15 K; 96.7 kPa; Liquid; Capillary tube (Ostwald / Ubbelohde) method
Rule: viscosity under 0.8 mPa·s gives rule not met, otherwise rule met.

Worked set:
COMPOUND | ASSIGNED CATEGORY
CN(C)C=O [dimethylformamide] | rule not met
c1ccncc1 [pyridine] | rule not met
CCCCCCn1cc[n+](C)c1.[Cl-] [1-hexyl-3-methylimidazolium chloride] | rule met

From here, focus on the item given below.
Task item: Determine whether measured viscosity meets or exceeds 0.8 mPa·s for C[S+](C)[O-] [dimethyl sulfoxide]
Reply: rule met

----------
Details: 343.15 K; 96.7 kPa; Liquid; Capillary tube (Ostwald / Ubbelohde) method
VALUE KIND: viscosity (mPa·s)
Give just the numeric value; mPa·s need not be written.

Some compounds with recorded viscosity:
COMPOUND | VALUE KIND | READOUT UNITS | ENDPOINT RESULT
c1ccncc1 | viscosity | mPa·s | 0.533
CN(C)C=O [dimethylformamide] | viscosity | mPa·s | 0.514
C[S+](C)[O-] [dimethyl sulfoxide] | viscosity | mPa·s | 0.989

Task item: Give recorded viscosity. CC(=O)N(C)C [N,N-dimethylethanamide]
Reply: 0.567

Task item: Give recorded viscosity. CCCCCCn1cc[n+](C)c1.[Cl-] [1-hexyl-3-methylimidazolium chloride]
Reply: 243.04

These measurements were taken from the NIST ThermoML archive (doi:10.1016/j.jct.2017.07.016).
